Molecular target: Type-1 angiotensin II receptor (Oryctolagus cuniculus)
Sequence (P34976 whole entry): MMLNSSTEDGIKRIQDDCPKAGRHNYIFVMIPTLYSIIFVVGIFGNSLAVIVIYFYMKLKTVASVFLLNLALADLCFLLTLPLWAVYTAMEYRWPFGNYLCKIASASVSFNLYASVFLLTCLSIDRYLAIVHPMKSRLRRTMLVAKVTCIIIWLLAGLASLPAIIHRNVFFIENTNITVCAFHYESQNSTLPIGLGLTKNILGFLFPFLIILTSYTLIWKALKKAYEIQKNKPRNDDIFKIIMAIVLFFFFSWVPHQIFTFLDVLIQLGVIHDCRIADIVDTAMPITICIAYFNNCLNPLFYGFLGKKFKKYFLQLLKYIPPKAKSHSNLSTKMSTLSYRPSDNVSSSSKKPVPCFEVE
observable: pIC50
In simple prose, pIC50 is minus the logarithm base ten of a concentration in moles per litre.

QUERY: # get_value(readout= pIC50, system= Type-1 angiotensin II receptor (Oryctolagus cuniculus)) for CCCCc1ncc(C(=O)OC)n1Cc1ccc(-c2ccccc2NS(=O)(=O)NC(=O)C2CC2)cc1
RESULT: 7.49

QUERY: # get_value(readout= pIC50, system= Type-1 angiotensin II receptor (Oryctolagus cuniculus)) for CCCCc1nc(Cl)c(C(=O)OC)n1Cc1ccc(-c2ccccc2-c2nn[nH]n2)cc1
RESULT: 7.89

QUERY: # get_value(readout= pIC50, system= Type-1 angiotensin II receptor (Oryctolagus cuniculus)) for CCCc1nc(CC)c(C(=O)O)n1Cc1ccc(-c2ccccc2S(=O)(=O)NC(=O)c2ccccc2)cc1
RESULT: 8.77

QUERY: # get_value(readout= pIC50, system= Type-1 angiotensin II receptor (Oryctolagus cuniculus)) for CCCc1nc(CC)c(C(=O)O)n1Cc1ccc(-c2ccccc2S(=O)(=O)NC(=O)C2CC2)cc1
RESULT: 8.37

QUERY: # get_value(readout= pIC50, system= Type-1 angiotensin II receptor (Oryctolagus cuniculus)) for CCCCc1ncc(C(=O)OC)n1Cc1ccc(-c2ccccc2S(=O)(=O)NC(=O)C2CC2)cc1
RESULT: 7.41
